System: lymph node cells from proinsulin-immunized HLA-DR4 transgenic mice
Assay: Proliferation and cytokines of lymph node cells from HLA-DR4 transgenic mice immunized with p73-90 proinsulin peptide
Assay type: cell-based, mouse
Conditions: cells from proinsulin-immunized mice; read-out: Half-maximal proliferation of stimulated cells

{"columns": ["Substance", "EC50 (nM)"],
 "data": [
  ["proinsulin peptide GAGSLQPLALEGSLQKRG (SEQ ID NO: 43) (listed as Homo sapiens) [p73-90]", 2500]
]}
